Ref: ChEMBL document CHEMBL1154198

Tested on: Plasmodium falciparum
Method notes: ST_JUDE: Plasmodium falciparum 3D7 EC50 (uM) as measured by SYBR green dye
Assay type: functional, organism-based
pEC50: −log10 of the molar value.
So basically: pEC50 at 6 or higher? That is yes. Lower than 6? That is no.

{"columns": ["Compound", "Group"],
 "data": [
  ["Cc1ccc(O)c(NC(=O)c2noc3c2CC(C(C)(C)C)CC3)c1 (stereo unspecified)", "no"]
]}

Evaluate C=CCN1C=CC=C/C1=C\c1sc2ccccc2[n+]1CC : pEC50 at minimum 6?
no

Does the reported pEC50 for CSc1ccc2ccccc2[n+]1C fall at or above the 6 mark?
no

Textbook exercise: given the entry CCOc1ccc2nc(N(Cc3cccnc3)C(=O)c3cccs3)sc2c1 , state whether its pEC50 is greater than or equal to 6.
no

Please tell me: is the compound Cc1ccc(C)c(NC(=O)c2c(-c3c(Cl)cccc3Cl)noc2C)c1 at or over 6 in terms of pEC50?
yes

Is pEC50 at least 6? Consider COC(=O)c1c(S(=O)(=O)N2CCCC2)sc2c1CCN(CCC(C)c1ccccc1)C2 (stereo unspecified)
no

###

Method notes: ST_JUDE: Cytotoxicity using luciferase to measure ATP as an indicator of the viability of human epithelial embryonic kidney cells (HEK293)
Format: toxicity, cell-based
pEC50: −log10 of the molar value.
Quantity measured: pEC50

{"columns": ["Compound", "pEC50"],
 "data": [
  ["CCCO/C(O)=C1\\C(C)=NC2=C(C(=O)CC(c3ccc(OC)c(OC)c3)C2)C1c1ccccc1F (stereo not given)", 4.45],
  ["CCOc1ccc(Nc2cc(C)c3ccc(O)cc3n2)cc1", "< 4.29"],
  ["CCCO/C(O)=C1\\C(C)=NC2=C(C(=O)CC(c3ccc(OC)c(OC)c3)C2)C1c1cccc(C)c1 (stereo not given)", "< 4.35"],
  ["CC1=NC2=C(C(=O)CC(c3ccc(Cl)cc3)C2)C(c2ccc(F)cc2)/C1=C(\\O)OC(C)C (stereo not given)", "< 4.40"],
  ["C=CCN1C=CC=C/C1=C\\c1sc2ccccc2[n+]1CC", "< 4.67"],
  ["OC(CNC1CCCC1)Cn1c2ccc(Cl)cc2c2cc(Cl)ccc21 (stereo not given)", 4.69],
  ["COc1ccc2c(c1)N(C)/C(=C/c1cccc[n+]1C)S2", "< 4.80"],
  ["CCO/C(O)=C1\\C(C)=NC2=C(C(=O)CC(c3ccc(OC)c(OC)c3)C2)C1c1ccc([N+](=O)[O-])cc1 (stereo not given)", "< 4.36"],
  ["CCOc1cc2c(cc1OCC)C(c1cc(C)c(O)c(C)c1)NCC2 (stereo not given)", "< 4.28"]
]}

Now look at this entry.
The compound listed as Cn1c(=O)c2c(-c3ccc(C(C)(C)C)cc3)n(-c3cc(Cl)ccc3O)cc2n(C)c1=O has a reported pEC50 of < 4.40

###

Tested on: Toxoplasma gondii
Method notes: ST_JUDE: Growth inhibition of to Toxoplasma gondii, in human U-2OS cells, as measured by luciferase.
Type: functional, organism-based
Measurement parameters: RH, U2OS
pEC50: −log10 of the molar value.
The entries below come with measured pEC50 values attached.

Take a look at these entries with their results.
{"columns": ["Molecule", "Observed result"],
 "data": [
  ["CCCO/C(O)=C1\\C(C)=NC2=C(C(=O)CC(c3ccc(OC)c(OC)c3)C2)C1c1cccc(C)c1 (stereo not drawn)", "< 4.61"],
  ["Cc1ccc2c(c1)N(CCO)/C(=C/c1sc3ccccc3[n+]1C)S2", "< 5.04"],
  ["CCc1nc2nc(C)cc(Nc3ccc(I)cc3)n2n1", "< 4.67"],
  ["CCCO/C(O)=C1\\C(C)=NC2=C(C(=O)CC(c3ccc(OC)c(OC)c3)C2)C1c1ccccc1Cl (stereo not drawn)", "< 4.67"],
  ["CC(C)CN1C(=O)c2ccccc2C(C(=O)Nc2ccc(F)c(Cl)c2)C1c1cccs1 (stereo not drawn)", "< 4.64"],
  ["Cc1ccc2c(c1)S/C(=C\\c1sc3ccccc3[n+]1C)N2CCO", "< 4.89"]
]}

Lookup result for Oc1ccc(Br)cc1CN1CCN(C2CC3CCC2C3)CC1 (stereo not drawn) ; measured pEC50: < 4.68

Lab note: Nc1ccc(-c2nc3cc(-c4ccc5[nH]c(-c6ccc(N)cc6)nc5c4)ccc3[nH]2)cc1 gave pEC50 of < 4.68

###

pEC50 values by entry
Tested on: Plasmodium falciparum
Method notes: ST_JUDE: Cytotoxicity against Plasmodium falciparum Dd2
Type: functional, organism-based
# pEC50 is unitless: minus log10 of the molar concentration; print number only

Record excerpt, results attached:
{"columns": ["Compound", "pEC50"],
 "data": [
  ["O=C(Nc1cccc(Cl)c1N1CCOCC1)C(Cl)(Cl)Cl", 5.61],
  ["COc1ccc(NC(=O)C2c3ccccc3C(=O)N(CC(C)C)C2c2cccs2)cc1Cl (stereo unspecified)", 6.78],
  ["CCCO/C(O)=C1\\C(C)=NC2=C(C(=O)CC(c3ccc(OC)cc3)C2)C1c1ccccc1F (stereo unspecified)", 6.20]
]}

// below: pEC50 requested for another compound
// field: pEC50; key: COC(=O)c1ccc(NC(=O)C2c3ccccc3C(=O)N(CC(C)C)C2c2cccs2)cc1 (stereo unspecified) ; value = 5.90

###

Method notes: ST_JUDE: Cytotoxicity using luciferase to measure ATP as an indicator of the viability of human epithelial hepatocellular carcinoma cells (HepG2)
Format: toxicity, cell-based
Quantity measured: EC50 (µM)
Give just the numeric value; µM need not be written.

Recorded EC50, per entry:
{"columns": ["Compound", "EC50 (µM)"],
 "data": [
  ["CCOc1cc2c(cc1OCC)C(c1cc(Cl)ccc1O)NCC2 (stereo not given)", 21],
  ["CCCCCOc1ccc(N(C(C)=O)C2=C(N3CCCCC3)C(=O)c3ccccc3C2=O)cc1", 9.76],
  ["C=CCn1c(=N)n(CC(O)c2ccc(Cl)c(Cl)c2)c2ccccc21 (stereo not given)", 16.4]
]}

Now consider a different compound.
Record summary for CCN(C(C)=O)C1=C(N2CCOCC2)C(=O)c2ccccc2C1=O : reported EC50 = 3.2

###

Method notes: ST_JUDE: Cytotoxicity using luciferase to measure ATP as an indicator of the viability of human epithelial embryonic kidney cells (HEK293)
Assay type: toxicity, cell-based
As shown below, each of these compounds has a reported EC50 value.

// solved cases for EC50 follow
{"columns": ["Compound", "EC50"],
 "data": [
  ["CC(C)c1ccc(CNCC(O)c2ccccc2)cc1 (stereo unspecified)", "34.5 µM"],
  ["CCOC(=O)C1(Cc2ccc(Cl)cc2)CCN(Cc2ccccc2O)CC1", "> 56.9 µM"],
  ["Cc1cccc(N2CCN(Cc3cc(Br)ccc3O)CC2)c1C", "> 27.9 µM"],
  ["Oc1ccc(Cl)cc1CN1CCN(c2cccc(C(F)(F)F)c2)CC1", "> 35.3 µM"],
  ["CCN1/C(=C/c2cccc[n+]2C)C=Cc2cc(C)ccc21", "> 32.2 µM"]
]}

Looking up CO/C(O)=C1\C(C)=NC2=C(C(=O)CC(c3ccc(OC)c(OC)c3)C2)C1c1ccccc1C (stereo unspecified) , I found its EC50 recorded as > 41.4 µM

According to the records, this compound CCOc1ccccc1N1CCN(Cc2cc(Br)cc(OC)c2O)CC1 displays EC50 of > 36.8 µM

The compound listed as CCOc1cc(C2CC(=O)NC3=C2C(=O)CC(c2cc(OC)ccc2OC)C3)ccc1O (stereo unspecified) has a reported EC50 of > 40.9 µM

Reported EC50 of CCN(CC)c1ccc(/C=C/c2ccc3ccc(OC)cc3[n+]2CC)cc1 : > 16.8 µM

###

Method notes: ST_JUDE: Cytotoxicity using luciferase to measure ATP as an indicator of the viability of human epithelial hepatocellular carcinoma cells (HepG2)
Type: toxicity, cell-based
Quantity measured: EC50

Solved entries (count: 3):
{"columns": ["Compound", "Observed result"],
 "data": [
  ["CCOC(=O)C1(Cc2ccc(Cl)cc2)CCN(Cc2ccccc2O)CC1", "> 56.9 µM"],
  ["CCO/C(O)=C1\\C(C)=NC2=C(C(=O)CC(c3ccc(OC)c(OC)c3)C2)C1c1cccc(C)c1 (stereo not given)", "> 40.6 µM"],
  ["Cc1cccc(N2CCN(Cc3cc(Br)ccc3O)CC2)c1C", "> 27.9 µM"]
]}

# compound Nc1ccc(-c2nc3cc(-c4ccc5[nH]c(-c6ccc(N)cc6)nc5c4)ccc3[nH]2)cc1 ; its EC50 = 8.94 µM

What the record says about COc1ccc(C2CC3=NC(C)=C(C(=O)OC(C)C)C(c4ccccc4Cl)C3=C(O)C2)cc1OC (stereo not given) : EC50 is > 41.2 µM

###

Method notes: ST_JUDE: Cytotoxicity using luciferase to measure ATP as an indicator of the viability of human Burkitt''s lymphoma lymphoblast cells (Raji)
Type: toxicity, cell-based
Quantity measured: EC50

Consider the reported EC50 for these compounds:
{"columns": ["Compound", "Observed result"],
 "data": [
  ["CN(C(=O)c1cc2c(s1)-c1ccccc1S(=O)(=O)C2)c1cccc(C(F)(F)F)c1", "> 40.8 µM"],
  ["CCOC(=O)C1(Cc2cccc(F)c2)CCN(Cc2ccccc2O)CC1", "> 52.6 µM"],
  ["O=[N+]([O-])c1cc(CN2CCN(c3cccc(C(F)(F)F)c3)CC2)c2cccnc2c1O", "> 31.9 µM"],
  ["CC(=O)N(C1=C(N(C)C)C(=O)c2ccccc2C1=O)c1ccc(F)cc1", "0.284 µM"],
  ["O=C1C(Nc2ccc(Br)cc2)=C(n2nnc3ccccc32)C(=O)c2ccccc21", "> 24.8 µM"]
]}

// CC[n+]1c(/C=C/c2ccc(N(C)C)cc2)ccc2cc(OC)ccc21 : EC50 value = 0.529 µM

Per the record, CCN(CC)Cc1cc(Nc2ccnc3cc(Cl)ccc23)ccc1O has EC50 of > 40.2 µM

Entry under test: Oc1ccc(Br)cc1CN1CCN(C2CC3CCC2C3)CC1 (configuration not stated) . Its EC50 was > 38.2 µM
